- Test system: barnyardgrass (Echinochloa crus-galli)
- Measurement notes: Test A postemergence, barnyardgrass
- Assay type: in vivo
- Condition context: 500 g ai/ha, visual injury, 0 to 100 scale (0 no effect, 100 complete control), approximately 10 days
Observed property: Plant response rating, Barnyardgrass
Please reply with the value in numeric form only.

Study these solved cases before continuing.
CN1CC(c2cccc(Sc3ccccc3)c2)C(C(=O)Nc2cccc(F)c2F)C1=O (single isomer, unassigned); 30
O=C1NCC(c2cccc(Cn3cccn3)c2)C1C(=O)Nc1ccccc1F (stereo not shown); 70
CN1CC(c2cccc(Oc3ccc(C(F)(F)F)cn3)c2)C(C(=O)Nc2ccccc2F)C1=O (single isomer, unassigned); 90
O=C1NCC(c2cccc(OCC3CC3)c2)C1C(=O)Nc1ccccc1F (stereo not shown); 90
O=C1NCC(c2cccc(Cn3cncn3)c2)C1C(=O)Nc1cccc(F)c1F (stereo not shown); 10
O=C1NCC(c2cccc(COc3ccccc3)c2)C1C(=O)Nc1ccccc1Cl (stereo not shown); 20
O=C1NCC(c2cccc(OC(F)(F)C(F)OC(F)(F)F)c2)C1C(=O)Nc1ccccc1F (stereo not shown); 40
O=C1NCC(c2cccc(Cn3cccn3)c2)C1C(=O)Nc1ccc(F)c(F)c1F (stereo not shown); 70

Please give the measured Plant response rating, Barnyardgrass for this molecule: O=C1NCC(c2cccc(COc3ccccc3)c2)C1C(=O)Nc1cccc(F)c1F (stereo not shown)
20

CON=Cc1cccc(C2CN(C)C(=O)C2C(=O)Nc2ccccc2F)c1 (stereo not shown) ?
90

* * *

- Test system: corn (Zea mays)
- Measurement notes: Test A postemergence, corn
- Assay type: in vivo
- Condition context: 500 g ai/ha, visual injury, 0 to 100 scale (0 no effect, 100 complete control), approximately 10 days
Observed property: Plant response rating, Corn
Please reply with the value in numeric form only.

Study these solved cases before continuing.
CN1CC(c2cccc(OC(F)(F)C(F)OC(F)(F)F)c2)C(C(=O)Nc2cccc(F)c2F)C1=O (stereo not shown) [Compound 48]; 40
C[Si](C)(C)C#Cc1cccc(C2CNC(=O)C2C(=O)Nc2cccc(F)c2F)c1 (stereo not shown) [Compound 33]; 0
O=C1NCC(c2cccc(COc3ccccc3)c2)C1C(=O)Nc1ccc(F)cc1F (stereo not shown) [Compound 20]; 0
CN1CC(c2cccc(OC(F)(F)C(F)OC(F)(F)F)c2)C(C(=O)Nc2ccccc2F)C1=O (stereo not shown) [Compound 41]; 40
O=C1NCC(c2cccc(Oc3ccccn3)c2)C1C(=O)Nc1cccc(F)c1F (stereo not shown) [Compound 68]; 0

Please give the measured Plant response rating, Corn for this molecule: CC1(COc2cccc(C3CNC(=O)C3C(=O)Nc3ccccc3C(F)(F)F)c2)COC1 (stereo not shown) [Compound 15]
0

O=C1NCC(c2cccc(Oc3ccc(F)cn3)c2)C1C(=O)Nc1cccc(F)c1F (single isomer, unassigned) [Compound 52] ?
70

O=C1NCC(c2cccc(Oc3ccc(C(F)(F)F)cn3)c2)C1C(=O)Nc1ccccc1F (single isomer, unassigned) [Compound 62] ?
30

O=C1NCC(c2cccc(Oc3ncc(Cl)cn3)c2)C1C(=O)Nc1ccccc1F (stereo not shown) [Compound 55] ?
0

CN1CC(c2cccc(Sc3ccccc3)c2)C(C(=O)Nc2cccc(F)c2F)C1=O (single isomer, unassigned) [Compound 51] ?
30

O=C1NCC(c2cccc(OCc3ccccc3)c2)C1C(=O)Nc1ccccc1F (stereo not shown) [Compound 63] ?
0

O=C1NCC(c2cccc(Cn3cccn3)c2)C1C(=O)Nc1ccccc1Cl (stereo not shown) [Compound 29] ?
0

O=C1NCC(c2cccc(Cn3cccn3)c2)C1C(=O)Nc1ccc(F)cc1F (stereo not shown) [Compound 28] ?
0

CN1CC(c2cccc(Sc3ccccc3)c2)C(C(=O)Nc2ccccc2F)C1=O (single isomer, unassigned) [Compound 50] ?
20

O=C1NCC(c2cccc(OCc3ccccc3)c2)C1C(=O)Nc1ccc(F)cc1F (stereo not shown) [Compound 64] ?
0

O=C1NCC(c2cccc(Cn3ccc(C(F)(F)F)n3)c2)C1C(=O)Nc1ccc(F)cc1F (stereo not shown) [Compound 24] ?
0

* * *

- Tested on: wheat (Triticum aestivum)
- Measurement notes: Test A postemergence, wheat
- Assay type: in vivo
- Condition context: 500 g ai/ha, visual injury, 0 to 100 scale (0 no effect, 100 complete control), approximately 10 days
Observed property: Plant response rating, Wheat
Please reply with the value in numeric form only.

CN1CC(c2cccc(OC(F)(F)C(F)OC(F)(F)F)c2)C(C(=O)Nc2cccc(F)c2F)C1=O (centres unmarked); 30
O=C1NCC(c2cccc(OCC3OCCO3)c2)C1C(=O)Nc1cccc(F)c1F (centres unmarked); 40
O=C1NCC(c2ccccc2Cn2ccc(C(F)(F)F)n2)C1C(=O)Nc1cccc(F)c1F (centres unmarked); 0
O=C1NCC(c2cccc(OCC3CC3)c2)C1C(=O)Nc1ccccc1Cl (centres unmarked); 0

Please give the measured Plant response rating, Wheat for this compound: O=C1NCC(c2cccc(Cn3ccc(C(F)(F)F)n3)c2)C1C(=O)Nc1ccccc1F (centres unmarked)
0

CN1CC(c2cccc(Oc3ccc(F)cn3)c2)C(C(=O)Nc2ccccc2F)C1=O (single isomer, unassigned) ?
70

O=C1NCC(c2cccc(Oc3ccccn3)c2)C1C(=O)Nc1ccccc1F (centres unmarked) ?
0

O=C1NCC(c2cccc(Oc3ccc(C(F)(F)F)cn3)c2)C1C(=O)Nc1cccc(F)c1F (single isomer, unassigned) ?
30

O=C1NCC(c2cccc(COc3ccccc3)c2)C1C(=O)Nc1ccc(F)cc1F (centres unmarked) ?
0

CC1(COc2cccc(C3CNC(=O)C3C(=O)Nc3ccccc3Cl)c2)COC1 (centres unmarked) ?
0

* * *

We begin with a simple list: items and their reported Plant response rating, Barnyardgrass.
- Test system: barnyardgrass (Echinochloa crus-galli)
- Measurement notes: Test A preemergence, barnyardgrass
- Type: in vivo
- Condition context: 500 g ai/ha, 0 to 100 scale (0 no effect, 100 complete control)
Please reply with the value in numeric form only.

Study these solved cases before continuing.
O=C1NCC(c2cccc(OCc3ccco3)c2)C1C(=O)Nc1cccc(F)c1F (centres unmarked) [Compound 9]; 70
CC1(COc2cccc(C3CNC(=O)C3C(=O)Nc3cccc(F)c3F)c2)COC1 (centres unmarked) [Compound 13]; 80
O=C1NCC(c2cccc(Oc3ccccn3)c2)C1C(=O)Nc1ccc(F)c(F)c1F (centres unmarked) [Compound 42]; 80

Query Plant response rating, Barnyardgrass on barnyardgrass (Echinochloa crus-galli) for O=C1NCC(c2cccc(Oc3ncc(Cl)cn3)c2)C1C(=O)Nc1ccccc1F (centres unmarked) [Compound 55]
80

* * *

We begin with a simple list: items and their reported Plant response rating, Wheat.
- System: wheat (Triticum aestivum)
- Measurement notes: Test A postemergence, wheat
- Format: in vivo
- Condition context: 500 g ai/ha, visual injury, 0 to 100 scale (0 no effect, 100 complete control), approximately 10 days
Please reply with the value in numeric form only.

O=C1NCC(c2ccccc2Cn2ccc(C(F)(F)F)n2)C1C(=O)Nc1ccc(F)c(F)c1F (stereo not shown) [Compound 58]; 0
CN(C)N=Cc1cccc(C2CN(C)C(=O)C2C(=O)Nc2ccccc2F)c1 (stereo not shown) [Compound 54]; 0
O=C1NCC(c2cccc(OCc3ccco3)c2)C1C(=O)Nc1ccccc1F (stereo not shown) [Compound 10]; 0
O=C1NCC(c2cccc(Oc3ncc(F)cn3)c2)C1C(=O)Nc1ccccc1F (single isomer, unassigned) [Compound 39]; 60
O=C1NCC(c2cccc(OCc3ccccc3)c2)C1C(=O)Nc1ccc(F)cc1F (stereo not shown) [Compound 64]; 0

Query Plant response rating, Wheat on wheat (Triticum aestivum) for O=C1NCC(c2cccc(Oc3ncc(Cl)cn3)c2)C1C(=O)Nc1ccccc1F (stereo not shown) [Compound 55]
0

O=C1NCC(c2cccc(Cn3cccn3)c2)C1C(=O)Nc1ccccc1F (stereo not shown) [Compound 27] ?
0

O=C1NCC(c2cccc(COc3ccccc3)c2)C1C(=O)Nc1ccc(F)c(F)c1F (stereo not shown) [Compound 17] ?
0

O=C1NCC(c2cccc(Oc3ccccn3)c2)C1C(=O)Nc1ccccc1Cl (stereo not shown) [Compound 69] ?
0

CN1CC(c2cccc(Oc3ccc(F)cc3)c2)C(C(=O)Nc2cccc(F)c2F)C1=O (single isomer, unassigned) [Compound 46] ?
20

* * *

- System: kochia (Kochia scoparia)
- Measurement notes: Test A preemergence, kochia
- Format: in vivo
- Condition context: 125 g ai/ha, 0 to 100 scale (0 no effect, 100 complete control)
We begin with a simple list: items and their reported Plant response rating, Kochia.
Please reply with the value in numeric form only.

O=C1NCC(c2cccc(OCc3ccccc3)c2)C1C(=O)Nc1ccccc1F (centres unmarked); 0
O=C1NCC(c2cccc(OCC3CC3)c2)C1C(=O)Nc1cccc(F)c1F (centres unmarked); 0
O=C1NCC(c2cccc(Cn3cncn3)c2)C1C(=O)Nc1ccccc1F (centres unmarked); 0
O=C1NCC(c2cccc(OCC3OCCO3)c2)C1C(=O)Nc1cccc(F)c1F (centres unmarked); 0
CN1CC(c2cccc(OC(F)(F)C(F)OC(F)(F)F)c2)C(C(=O)Nc2ccccc2F)C1=O (centres unmarked); 30
O=C1NCC(c2cccc(COc3ccccc3)c2)C1C(=O)Nc1cccc(F)c1F (centres unmarked); 0

Please give the measured Plant response rating, Kochia for this molecule: C[Si](C)(C)C#Cc1cccc(C2CNC(=O)C2C(=O)Nc2cccc(F)c2F)c1 (centres unmarked)
0

CON=Cc1cccc(C2CN(C)C(=O)C2C(=O)Nc2ccccc2F)c1 (centres unmarked) ?
60
